Target: glycosylated human PAI-1 (active form) (human, UniProt P05121 24-402, glycosylated (sites not given))
Sequence (P05121 24-402 limits assumed, form in doubt): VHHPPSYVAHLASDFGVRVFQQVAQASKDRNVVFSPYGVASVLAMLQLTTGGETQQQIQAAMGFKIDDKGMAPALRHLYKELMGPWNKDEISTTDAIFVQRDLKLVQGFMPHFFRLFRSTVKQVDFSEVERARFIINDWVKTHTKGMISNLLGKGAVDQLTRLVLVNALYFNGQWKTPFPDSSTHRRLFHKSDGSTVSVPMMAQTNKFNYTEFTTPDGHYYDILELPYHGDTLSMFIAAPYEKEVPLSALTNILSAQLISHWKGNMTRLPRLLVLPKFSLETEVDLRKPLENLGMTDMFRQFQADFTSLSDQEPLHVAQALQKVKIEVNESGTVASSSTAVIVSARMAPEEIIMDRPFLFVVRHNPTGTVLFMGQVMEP
Assay: cell-based or functional assay
observation.type: human plasma clot lysis Imax @ 100 nM (%)
One number for each entry, in %.

-- ask Could you tell me which human plasma clot lysis Imax @ 100 nM is on file for APG (antibody, V domains shown, mouse antibody; also called mAPG; mouse APG) VH: QVKLQESGPELVKPGASVKISCKASGYSFTDYNMNWVKQSKGKSLEWIGIIHPNSGTTTYNQKFKGKATLTVDQSSSTAYLQLNSLTSEDSAVYYCARSKLRFFDYWGQGTTVTVSS VL: DIKLTQSPSSMYASLGERVTITCKASQDIYSYLSWFQQKPGKSPKTLIYRANRLIDGVPSRFSGSGSGQDYSLTISSLEYEHMGIYYCLQYDEFPFTFGSGTKLEIK ?
-- reply 123
